Origin of the recorded values: ChEMBL document CHEMBL1201862

# Test system: UO-31
# assay-details: NCI tumour cell line growth inhibition, 48 h
Active and inactive are the calls of the source. Rule as the data show it: active = GI50 up to about 1.1 µM and inactive = higher.
property-measured: GI50

CCOC(=O)C1=c2[nH]c3cccc4cccc(c43)n2C=C(C(C)=O)C1CC(C)=O (stereo not drawn)
37.4 µM (inactive)
Cc1c(C(=O)C(=O)c2ccccc2)c(C)c(C(=O)C(=O)c2ccccc2)c(C)c1C(=O)C(=O)c1ccccc1
> 100 µM (inactive)
C=C1[C@@H](O)C[C@@]23CC[C@@H]4[C@@]5(C)CC[C@@H](OC(C)=O)C(C)(C)[C@@H]5C[C@@H](OC5OC(COC(C)=O)C(O)C(O)C5O)[C@@]4(C)C2=CC[C@H]3[C@H]1C (stereo partly drawn)
14.1 µM (inactive)
CC1(C)N=C(Oc2ccccc2)n2nccc2N1
> 100 µM (inactive)
O=C(O)CN(c1ccccc1)S(=O)(=O)c1ccc([N+](=O)[O-])cc1
> 100 µM (inactive)
Cc1cc2c(cc1C)[n+]([O-])c(-c1c(Cl)cccc1Cl)c(N)[n+]2[O-]
30.3 µM (inactive)
COc1ccc(C(=O)/C=C/c2ccc(OCCCCCCCCCCOc3ccc(/C=C/C(=O)c4ccc(OC)c(OC)c4)cc3)cc2)c(OC)c1
> 100 µM (inactive)
CNC(=O)OCc1nc(N=[N+]=[N-])n(C)c1COC(=O)NC
> 10 µM (inactive)

----------
# System: HT-29
# assay-details: NCI tumour cell line growth inhibition, 48 h
Calls of active or inactive are those of the source. No stated cut-off is given here; in the data, active = GI50 up to about 1.1 µM and inactive = higher. Where a SMILES comes first, the peptide text is derived from it. [ ]: non-standard residue; d: D form. The star is where a group is joined. Phe(4-NO2) = N[CH](Cc1ccc([N+](=O)[O-])cc1)C(=O)O; Cbz = O=C(OCc1ccccc1)*
Outcome codes: YES for active, NO for inactive

CCOc1ccccc1N1C(=O)C(=O)C(c2nc3ccccc3o2)C(=O)C1=O
NO
C=C(CCC(C(=O)O)C1CCC2(C)C3=C(CCC12C)C1(C)CCC(O)C(C)(C)C1CC3)C(C)C (stereo unspecified)
NO
CCCCc1ccc(Nc2nc(Cl)c3c(ncn3COCCOC(C)=O)n2)cc1
NO
Cc1ccc(NC(=S)NNC(=O)c2cc(-c3ccccc3)nc3ccccc23)cc1C
NO
Cc1cc2c(cc1C)[n+]([O-])c(-c1c(Cl)cccc1Cl)c(N)[n+]2[O-]
NO
CCOC(=O)C(Oc1ccc(OC)c2c1C(=O)CCC2)c1ccccc1 (stereo unspecified)
NO
O=C1C(CO)=C(CO)C(=O)c2c(O)ccc(O)c21
YES
CC12CCCCC1C(=O)C2(Cl)Cl (stereo unspecified)
NO
CC1=CC2=C(OCO1)C(=O)c1ccccc1C2=O
NO
CSC(SC)=C(C#N)C(=O)Nc1ccc(Cl)cc1
NO
CCN(CC)CCC/N=c1\c2cc(OC)ccc2[nH]c2c([N+](=O)[O-])ccc(NCCCN(CC)CC)c12
NO
CCSC(=O)/C=C1\CN(C(=O)OC(C)(C)C)C1C(=O)OC(C)(C)C (stereo unspecified)
NO
CCN(CC)C(=O)c1cc(OC(C)C)ccc1-c1c(C)cc(OC(C)C)c(OC)c1OC
NO
Fc1ccc(Oc2nc3ccc(C(F)(F)F)cc3nc2-c2ccccc2)cc1
NO
CN(C)c1ccc(/C=C2\C[N+](C)(C)C/C(=C\c3ccc(N(C)C)cc3)C2=O)cc1
NO
CS/C(=N\C(=S)Nc1ccccc1)Nc1ccccc1
NO
O=c1[nH]c2cccccc-2c1-c1nc2ccccc2[nH]1
NO
Cc1c(C(=O)C(=O)c2ccccc2)c(C)c(C(=O)C(=O)c2ccccc2)c(C)c1C(=O)C(=O)c1ccccc1
NO
OCCCCn1cc(Cn2ncc3c(O)ncnc32)nn1
NO
Cc1nc2ccc(S(=O)(=O)Nc3ccccc3Cl)cc2c(=O)n1NC(=O)CNc1ccccc1Cl
NO
Cc1nc2ccccc2n1Cc1nnc(N)o1
NO
COc1cc2[nH]c3c(c2cc1OC)CCN[C@@]31CC[C@@]2(CC3c4c(cc(OC)c(O)c42)CCN3C)C[C@@H]1OC (stereo partly specified)
NO
CCCCN(CCCC)CC(C(=O)Nc1ccccc1)/C(C)=N\NC(=O)c1ccncc1 (stereo unspecified)
NO
CN(C)CCCN1CCC2(CCC(C(C)(C)C)CC2)CC1
YES
CCCCCCCC(=O)NCC(O)CNC(=O)CCCCCCC
NO
Cc1ccc2c(c1)Sc1ccc(/N=N/N(C)C)cc1N2C
NO
O=C1CNC(=O)c2[nH]cnc2N1
NO
COC1OC(C)C(OC(=O)C(C)(C)C)C(C)(O)C1O (stereo unspecified)
NO
CCN(CC)CCNC(=O)c1cc2cc(NC(=O)c3cc4cc([N+](=O)[O-])ccc4[nH]3)ccc2[nH]1
NO
CC1(C)N=C(Oc2ccccc2)n2nccc2N1
NO
CCOC(=O)CCC(NC(=O)OCc1ccccc1)C(=O)NC(CCC(=O)OCC)C(=O)NC(Cc1ccc([N+](=O)[O-])cc1)C(=O)NC(CCC(=O)OCC)C(=O)NC(CCC(=O)OCC)C(=O)OCC (stereo unspecified) (Cbz-E(OEt)E(OEt)[Phe(4-NO2)]E(OEt)E(OEt)-OEt; configuration not given here)
NO
COc1cc(CCC(=O)NS(=O)(=O)c2ccccc2)cc(OC)c1OC
NO
CN1CCc2cc3c(c4c2C1C(O)c1ccccc1-4)OCO3 (stereo unspecified)
NO
CC1=C(C(=O)Nc2ccccc2)C(c2ccc([N+](=O)[O-])cc2)C(C(=O)Nc2ccccc2)=C(C)N1
NO
N#C[C@H](C(=O)c1ccccc1F)c1nc2ccccc2[nH]1
NO
Oc1cccc2cc(Cl)cnc12
NO
COC(=O)C(Cc1ccccc1)NP(=O)(O)OCC1OC(n2ccc(N)nc2=O)C(O)C1O (stereo unspecified)
NO
COc1ccccc1C(=O)NCC1CCCN2CCCCC12 (stereo unspecified)
NO
[O-][Cl+3]([O-])([O-])[O-].c1ccc(-c2csc3c4ccccc4c4ccccc4[n+]23)cc1
NO
O=C1C=C(c2c(O)ccc3ccccc23)c2cc(O)ccc2C1=O
NO
COC1=CC(=O)c2ccc(C(C)C)cc2C1(C)C1=NC(C)(C)CO1 (stereo unspecified)
NO

----------
# System: CAKI-1
# assay-details: NCI tumour cell line growth inhibition, 48 h
Active and inactive are the calls of the source. Cut-off read from the data, not from the text of the source: active = GI50 up to about 1.1 µM and inactive = higher.
property-measured: GI50

O=P(c1ccccc1)(c1ccccc1)c1ccc2c(c1)OCCOCCOCCOCCO2
> 100 µM (inactive)
C=C1C(=O)O[C@H]2C[C@@]3(C)[C@H](O)CCC(=C)[C@@H]3[C@@H](OC(C)=O)[C@H]12
1.48 µM (inactive)
Cc1ccc2c(O)cc(-c3ccc(Cl)s3)nc2n1
3.24 µM (inactive)
O=c1ncccn1[C@@H]1O[C@H](CO)[C@H](O)C1O (stereo not given in full)
38.8 µM (inactive)
N#Cc1nc2cc(Cl)ccc2nc1N1CCN(c2ccc([N+](=O)[O-])cc2)CC1
> 100 µM (inactive)

----------
# System: BT-549
# assay-details: NCI tumour cell line growth inhibition, 48 h
The source made the active and inactive calls. Rule as the data show it: active = GI50 up to about 1.1 µM and inactive = higher.
Outcome codes: 1.0 (active), 0.0 (inactive)

Cc1nc2ccc(S(=O)(=O)Nc3ccccc3Cl)cc2c(=O)n1NC(=O)CNc1ccccc1Cl
0.0
COc1ccc(OC)c2c(=O)cc(-c3ccccc3)[nH]c12
0.0
FC(F)(F)c1cccc(-c2nc3nc(Cl)c(Cl)nc3[nH]2)c1
0.0
CN(C)c1ccc(/C=C2/SC(=S)NC2=O)cc1
0.0
N#Cc1nc2cc(Cl)ccc2nc1N1CCN(c2ccc([N+](=O)[O-])cc2)CC1
0.0
CC(=O)OC1=CC(n2cc(F)c(=O)[nH]c2=O)OC(C)C1=O (stereo not given)
0.0
O=C1c2cccnc2-c2nccc3c2c1nc1cc(Br)ccc13
1.0
COC(C)(C)C(O)C(O)C[C@H](C)C1CC=C2C1(C)CCC1[C@@]3(C)CCC(OC(C)=O)C(C)(C)C3CC(OC3OC(COC(C)=O)C(O)C(O)C3O)[C@@]21C (stereo not given in full)
0.0
CN(C)CCCN1CCC2(CCC(C(C)(C)C)CC2)CC1
0.0
COc1cc(C(=O)O)c([N+](=O)[O-])c(OC)c1OC
0.0

----------
# Tested on: 786-0
# assay-details: NCI tumour cell line growth inhibition, 48 h
Active and inactive are the calls of the source. Cut-off read from the data, not from the text of the source: active = GI50 up to about 1.1 µM and inactive = higher.
Listed below: GI50 values for each entry.
property-measured: GI50

CCOC(=O)c1ncn2c1[nH]c(=O)c1ccccc12
> 100 µM (inactive)
O=c1n(-c2ccccc2)c(=O)n2n1C1Cc3ccccc3C12 (configuration not stated)
> 100 µM (inactive)
FC(F)(F)c1cccc(-c2nc3nc(Cl)c(Cl)nc3[nH]2)c1
3.77 µM (inactive)
CCc1ccccc1N1CCN(C(=O)c2cc(OC)c(OC)c(OC)c2)CC1
< 0.0149 µM (active)
Cc1ccc(C2SCC(=O)N2NC(=O)c2ccncc2)s1 (configuration not stated)
> 100 µM (inactive)
[O-][Cl+3]([O-])([O-])[O-].c1ccc(-c2csc3c4ccccc4c4ccccc4[n+]23)cc1
4.85 µM (inactive)
CC(N/N=C(\S)N1CCN(c2ccccn2)CC1)c1cccc[n+]1[O-] (configuration not stated)
7.71 µM (inactive)
COc1ccc(C2S/C(=C\c3cc(OC)c(OC)c(OC)c3)C(=O)N2NC(=O)Cc2ccccc2)cc1 (configuration not stated)
> 100 µM (inactive)
Nc1ccc(-c2nc3ccc(F)cc3s2)cc1Cl
> 61.1 µM (inactive)
CSC1=N/C(=C\c2ccc(C)cc2)C(=O)N1
45.8 µM (inactive)
O=C(O)c1cc(-c2ccc3cc4c(cc3c2)OCO4)nc2ccccc12
30.7 µM (inactive)
COC1OC(C)C(OC(=O)C(C)(C)C)C(C)(O)C1O (configuration not stated)
> 100 µM (inactive)
CCC[C@@H](O)C[C@@H]1CCC[C@H](C[C@@H](O)CC)N1C
> 100 µM (inactive)
C=C(C)C1CC=C(C)C(O)([C@@]2(O)C[C@H](C(=C)C)CC=C2C)C1 (some centres not stated)
16.8 µM (inactive)
CCCCn1c(-c2ccccc2)cs/c1=N\N=C1C=C(C(C)(C)C)C(=O)C(C(C)(C)C)=C1
> 100 µM (inactive)
C/C(CC(=O)Nc1cccc([N+](=O)[O-])c1)=N/NC(N)=S
> 100 µM (inactive)
Nc1c(-c2ccc(-c3c(N)[n+]([O-])c4ccccc4[n+]3[O-])cc2)[n+]([O-])c2ccccc2[n+]1[O-]
13.5 µM (inactive)
N#C/C(=C/NC(=S)Nc1ccc(S(N)(=O)=O)cc1)C(N)=O
> 100 µM (inactive)
CC(=C(C(=O)O)C(=O)O)c1cc(-c2cccs2)cc(-c2ccc(Cl)cc2)c1O
15.2 µM (inactive)
CC1=NN=C(NCCN(C)C)C/C1=C/c1ccccc1Cl
> 100 µM (inactive)
O=C(Cn1c(-c2ccccc2)cc2ccccc21)N1CCCC1
> 100 µM (inactive)
CCOC(=O)c1c(C)[n+]([O-])c2cc(Cl)c(Cl)cc2[n+]1[O-]
28.3 µM (inactive)
